assay: Half life in rat; assay type: ADME; conditions: in vivo
parameter-measured: half-life (min)
Express the result in min but write the number alone.

IN: Please give the measured half-life for this compound: O=C(NCc1ccc(C(F)(F)F)cc1)Nc1cccc2cnccc12
OUT: 36

* * *

assay: Plasma protein binding in rat; format: ADME, cell-free; settings: read-out: Plasma protein binding (converted)
parameter-measured: fraction unbound
Answer as a number with no unit attached.

IN: Endpoint output: fraction unbound of O=C(NCc1ccc(C(F)(F)F)cc1)Nc1cccc2cnccc12 . Value?
OUT: 0.029

* * *

experiment: Volume of distribution in rat; assay type: ADME, organism-based; conditions: in vivo, read-out: Vbeta
parameter-measured: Vd (L/kg)
Respond numerically; units are L/kg and should not be typed.

IN: Quick one: Vd for O=C(NCc1ccc(C(F)(F)F)cc1)Nc1cccc2cnccc12 ?
OUT: 0.6
